Test: Solubility of zolmitriptan at room temperature in PBS, water and IPA (in-house)
Type: physicochemical
Conditions: 10 mM phosphate buffer saline, aqueous buffer, thermodynamic from solid; 10 mM PBS, pH 7.4; mixed 2 hours; room temperature; read-out: Zolmitriptan Concentration (saturated solution)
parameter.measured: solubility thermodynamic at 2 h (µg/mL)
// units = µg/mL; emit number, no label

Param item = CN(C)CCc1c[nH]c2ccc(C[C@H]3COC(=O)N3)cc12 ; retrieve measured solubility thermodynamic at 2 h.
1240

---

Assay: Solubility of zolmitriptan at room temperature in PBS, water and IPA (in-house)
Type: physicochemical
Settings: water, thermodynamic from solid
Method: The solubility of zolmitriptan at room temperature in phosphate buffer saline (PBS), water, and isopropyl alcohol (IPA) were evaluated in-house. Zolmitriptan API was added into 200 mL of water, 10 mM phosphate buffer saline (PBS) at pH 7.4, and IPA until saturated. The solutions were then mixed at room temperature by stir bar overnight. Saturated solutions at 2 and 24 hours were filtered and analyzed for drug concentration by HPLC.
parameter.measured: solubility

Param item = CN(C)CCc1c[nH]c2ccc(C[C@H]3COC(=O)N3)cc12 ; retrieve measured solubility.
~1000 µg/mL

---

Experiment: Solubility of zolmitriptan at room temperature in PBS, water and IPA (in-house)
Format: physicochemical
Details: isopropyl alcohol (IPA), organic solvent or mixture, thermodynamic from solid
parameter.measured: solubility

Param item = CN(C)CCc1c[nH]c2ccc(C[C@H]3COC(=O)N3)cc12 ; retrieve measured solubility.
~1700 µg/mL

---

Test: Solubility of zolmitriptan at room temperature in PBS, water and IPA (in-house)
Assay type: physicochemical
Conditions: 10 mM PBS, pH 7.4, aqueous buffer, thermodynamic from solid
parameter.measured: solubility

Param item = CN(C)CCc1c[nH]c2ccc(C[C@H]3COC(=O)N3)cc12 [zolmitriptan] ; retrieve measured solubility.
~1200 µg/mL
